- Test system: MC1/MC4;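 note: ratio of EC50 values obtained at MC1 versus MC4 receptors, with MC1 potency measured by luciferase reporter activity in stably transfected cells expressing human MC1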
- condition: ratio MC1/MC4
# reported MC1/MC4 selectivity; entries follow

{"substance": "Ac-Tyr-Arg-cyclo[Cys-Cya-His-D-Phe-Arg-Trp-Cys]-NH2 [Compound 28]", "system name": "MC1/MC4", "MC1/MC4 selectivity": 26.35}
{"substance": "3-(4-methylbenzoyl)propionyl-Arg-cyclo[Cys-Glu-His-D-Phe-Arg-Trp-Cys]-NH2 [Compound 67]", "system name": "MC1/MC4", "MC1/MC4 selectivity": 9.15}
{"substance": "Ac-cyclo[hCys-His-D-Phe-Arg-Trp-Cys]-OH [Compound 138]", "system name": "MC1/MC4", "MC1/MC4 selectivity": 38.81}
{"substance": "Ac-cyclo(S—CH2—S)[Cys-His-D-Phe-Arg-Trp-Cys]-NH2 [Compound 198]", "system name": "MC1/MC4", "MC1/MC4 selectivity": 13.07}
{"substance": "N-succinyl-Tyr-Arg-cyclo[Cys-Glu-His-D-Phe-Arg-Trp-Cys]-NH2 [Compound 74]", "system name": "MC1/MC4", "MC1/MC4 selectivity": 12.00}
{"substance": "Ac-Tyr-Arg-cyclo[Cys-Glu-His-D-Phe-Arg-Trp-Cys]-NH-(CH2)6-NH2 [Compound 117]", "system name": "MC1/MC4", "MC1/MC4 selectivity": 1.00}
{"substance": "cyclo[hCys-His-D-Phe-Arg-Trp-Cys]-NH2 [Compound 132]", "system name": "MC1/MC4", "MC1/MC4 selectivity": 77.32}
{"substance": "N-hexanoyl-cyclo[hCys-His-D-Phe-Arg-Trp-Cys]-NH2 [Compound 145]", "system name": "MC1/MC4", "MC1/MC4 selectivity": 3.82}
